Target: human THRβ (Homo sapiens (Human), UniProt P10828)
Sequence (P10828 whole entry): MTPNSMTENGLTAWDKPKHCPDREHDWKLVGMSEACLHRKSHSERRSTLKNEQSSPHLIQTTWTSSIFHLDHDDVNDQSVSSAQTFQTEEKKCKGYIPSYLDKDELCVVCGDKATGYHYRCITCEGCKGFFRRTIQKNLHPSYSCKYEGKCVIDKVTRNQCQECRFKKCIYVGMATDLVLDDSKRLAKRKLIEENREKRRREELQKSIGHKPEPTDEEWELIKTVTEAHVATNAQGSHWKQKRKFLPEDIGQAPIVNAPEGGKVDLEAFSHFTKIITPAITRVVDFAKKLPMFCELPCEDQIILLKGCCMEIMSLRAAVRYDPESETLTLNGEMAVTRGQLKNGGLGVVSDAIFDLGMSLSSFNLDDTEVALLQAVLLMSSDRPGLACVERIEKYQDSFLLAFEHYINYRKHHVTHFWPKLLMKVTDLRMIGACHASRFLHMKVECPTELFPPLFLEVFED
Assay: THR reporter gene method, agonistic activity on THRβ (Huh7 cells, PGL4.26-DR4-Luc)
Type: cell-based
Conditions: (EC50 compound THRα/EC50 T3 THRα)/(EC50 compound THRβ/EC50 T3 THRβ)
REPORTED_PROPERTY: β selectivity

Take a look at these entries with their results.
>>> observed_measurement("O=C(Nc1cc(Cl)c(-n2ccc3c2ccc(=O)n3C2CC2)c(Cl)c1)c1noc(=O)[nH]1")
7.2
>>> observed_measurement("Cn1c(=O)ccc2c1ccn2-c1c(Cl)cc(-n2nc(C#N)c(=O)[nH]c2=O)cc1Cl")
7.1

I: O=C(Nc1cc(Cl)c(-n2ccc3c2ccc(=O)n3C2CCCC2)c(Cl)c1)c1noc(=O)[nH]1
II: O=C(Nc1cc(Cl)c(-n2ccc3cc(O)ccc32)c(Cl)c1)c1noc(=O)[nH]1
Asked: Hello, I am sorting some records. Could you say if I or II has the smaller β selectivity value? Provide the label of your selected option as the answer.
Given back: II
